Reported values of IC50 of mouth (KB) for individual entries
# Test system: KB
# protocol description: MTT assay, mouth (KB)
# Format: cell-based, human

{"molecule": "CC=C(C)C(=O)OCC1(C)C(O)CCC2(C)C1CCC1(C)C2CC=C2C3CC(C)(C)C(O)C(OC(=O)C(C)=CC)C3(COC(=O)C(C)=CC)C(O)CC21C (stereo not shown)", "test target": "KB", "IC50 of mouth (KB) (µg/mL)": 13}
{"molecule": "CC=C(C)C(=O)OCC1(C)C(OC(=O)C(C)=CC)CCC2(C)C1CCC1(C)C2CC=C2C3CC(C)(C)C(OC(=O)C(C)=CC)C(O)C3(CO)C(O)CC21C (stereo not shown)", "test target": "KB", "IC50 of mouth (KB) (µg/mL)": 16}
{"molecule": "CC=C(C)C(=O)OCC1(C)C(O)CCC2(C)C1CCC1(C)C2CC=C2C3CC(C)(C)C(OC(=O)C(C)=CC)C(O)C3(COC(=O)C(C)=CC)C(O)CC21C (stereo not shown)", "test target": "KB", "IC50 of mouth (KB) (µg/mL)": 4.5}
{"molecule": "CC=C(C)C(=O)OCC1(C)C(O)CCC2(C)C1CCC1(C)C2CC=C2C3CC(C)(C)C(O)C(O)C3(CO)C(O)CC21C (stereo not shown)", "test target": "KB", "IC50 of mouth (KB) (µg/mL)": 9}
